Molecular target: K61Q PncC (Escherichia coli, UniProt P0A6G3, K61Q)
Construct: made in house; host or cells: E. coli BL21(DE3)
Sequence (P0A6G3 whole entry K61Q): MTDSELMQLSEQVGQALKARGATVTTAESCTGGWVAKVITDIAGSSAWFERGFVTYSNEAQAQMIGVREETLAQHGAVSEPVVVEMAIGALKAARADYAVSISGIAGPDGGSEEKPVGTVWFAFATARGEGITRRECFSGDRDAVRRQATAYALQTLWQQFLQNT
Assay type: binding, E. coli
Conditions: nucleotide 0.185 µM
Here, each record is paired with measured K61Q PncC fluorescence quenching (%) vs buffer data.
Kindly provide the numeric value in % only, without the unit symbol.

molecule="O=C(O)c1ccc[n+]([C@@H]2O[C@H](COP(=O)([O-])O)[C@@H](O)[C@H]2O)c1 [NaMN, nicotinic acid mononucleotide]" units_of_measure=% result_value=0.71

Query NC(=O)c1ccc[n+]([C@@H]2O[C@H](CO)[C@@H](O)[C@H]2O)c1 [NR, nicotinamide riboside] yields K61Q PncC fluorescence quenching (%) vs buffer of 2.13

Query NC(=O)c1ccc[n+]([C@@H]2O[C@H](COP(=O)([O-])OP(=O)(O)OC[C@H]3O[C@@H](n4cnc5c(N)ncnc54)[C@H](O)[C@@H]3O)[C@@H](O)[C@H]2O)c1 [NAD, nicotinamide adenine dinucleotide] yields K61Q PncC fluorescence quenching (%) vs buffer of 0.63

Query `NC(=O)c1ccc[n+]([C@@H]2O[C@H](COP(=O)(O)OP(=O)([O-])OC[C@H]3O[C@@H](n4cnc5c(N)ncnc54)[C@H](OP(=O)(O)O)[C@@H]3O)[C@@H](O)[C@H]2O)c1` yields K61Q PncC fluorescence quenching (%) vs buffer of 0

---

Target: K61Q PncC (Escherichia coli, UniProt P0A6G3, K61Q)
Construct: made in house; host or cells: E. coli BL21(DE3)
Assay type: binding, E. coli
Conditions: nucleotide 1.5 µM
Under this convention, condition met denotes K61Q PncC fluorescence quenching (%) vs buffer strictly below 0.8% and condition not met denotes K61Q PncC fluorescence quenching (%) vs buffer at or above 0.8%.

molecule="NC(=O)c1ccc[n+]([C@@H]2O[C@H](COP(=O)([O-])O)[C@@H](O)[C@H]2O)c1 [NMN, nicotinamide mononucleotide]" target="K61Q PncC (Escherichia coli, UniProt P0A6G3, K61Q)" classification="condition not met"
molecule="O=C(O)c1ccc[n+]([C@@H]2O[C@H](COP(=O)([O-])O)[C@@H](O)[C@H]2O)c1 [NaMN, nicotinic acid mononucleotide]" target="K61Q PncC (Escherichia coli, UniProt P0A6G3, K61Q)" classification="condition not met"
molecule="O=C(O)c1cccnc1 [Na, nicotinic acid]" target="K61Q PncC (Escherichia coli, UniProt P0A6G3, K61Q)" classification="condition not met"
molecule="NC(=O)c1ccc[n+]([C@@H]2O[C@H](CO)[C@@H](O)[C@H]2O)c1 [NR, nicotinamide riboside]" target="K61Q PncC (Escherichia coli, UniProt P0A6G3, K61Q)" classification="condition not met"
molecule="NC(=O)c1ccc[n+]([C@@H]2O[C@H](COP(=O)(O)OP(=O)([O-])OC[C@H]3O[C@@H](n4cnc5c(N)ncnc54)[C@H](OP(=O)(O)O)[C@@H]3O)[C@@H](O)[C@H]2O)c1 [NADP]" target="K61Q PncC (Escherichia coli, UniProt P0A6G3, K61Q)" classification="condition met"
molecule="NC(=O)c1cccnc1 [Nam, nicotinamide]" target="K61Q PncC (Escherichia coli, UniProt P0A6G3, K61Q)" classification="condition met"

Request: Report whether reported K61Q PncC fluorescence quenching (%) vs buffer is lower than 0.8% (strictly) for Nc1ncnc2c1ncn2[C@@H]1O[C@H](COP(=O)(O)OP(=O)([O-])OC[C@H]2O[C@@H]([n+]3cccc(C(=O)O)c3)[C@H](O)[C@@H]2O)[C@@H](O)[C@H]1O [NaAD, nicotinic acid adenine dinucleotide]
Result: condition not met

---

Biological target: K61Q PncC (Escherichia coli, UniProt P0A6G3, K61Q)
Construct: made in house; host or cells: E. coli BL21(DE3)
Type: binding, E. coli
Conditions: nucleotide 3 µM
ASSAY READOUT: K61Q PncC fluorescence quenching (%) vs buffer
Kindly provide the numeric value in % only, without the unit symbol.

These solved cases illustrate the format of a correct answer.
compound="NC(=O)c1ccc[n+]([C@@H]2O[C@H](COP(=O)([O-])O)[C@@H](O)[C@H]2O)c1 [NMN, nicotinamide mononucleotide]" result_value=6.26
compound=NC(=O)c1ccc[n+]([C@@H]2O[C@H](COP(=O)(O)OP(=O)([O-])OC[C@H]3O[C@@H](n4cnc5c(N)ncnc54)[C@H](OP(=O)(O)O)[C@@H]3O)[C@@H](O)[C@H]2O)c1 result_value=0.42
compound="NC(=O)c1cccnc1 [Nam, nicotinamide]" result_value=0.91

Per the reported K61Q PncC (Escherichia coli, UniProt P0A6G3, K61Q) data, `O=C(O)c1cccnc1` has K61Q PncC fluorescence quenching (%) vs buffer of 2.89

Per the reported K61Q PncC (Escherichia coli, UniProt P0A6G3, K61Q) data, NC(=O)c1ccc[n+]([C@@H]2O[C@H](COP(=O)([O-])OP(=O)(O)OC[C@H]3O[C@@H](n4cnc5c(N)ncnc54)[C@H](O)[C@@H]3O)[C@@H](O)[C@H]2O)c1 [NAD, nicotinamide adenine dinucleotide] has K61Q PncC fluorescence quenching (%) vs buffer of 0.85

---

Here, each record is paired with measured K61Q PncC fluorescence quenching (%) vs buffer data.
Biological target: K61Q PncC (Escherichia coli, UniProt P0A6G3, K61Q)
Construct: made in house; host or cells: E. coli BL21(DE3)
Format: binding, E. coli
Conditions: nucleotide 3 µM
Please answer in the form of a number followed by its unit of measurement.

These solved cases illustrate the format of a correct answer.
compound="O=C(O)c1ccc[n+]([C@@H]2O[C@H](COP(=O)([O-])O)[C@@H](O)[C@H]2O)c1 [NaMN, nicotinic acid mononucleotide]" result_value=2.82%
compound="Nc1ncnc2c1ncn2[C@@H]1O[C@H](COP(=O)(O)OP(=O)([O-])OC[C@H]2O[C@@H]([n+]3cccc(C(=O)O)c3)[C@H](O)[C@@H]2O)[C@@H](O)[C@H]1O [NaAD, nicotinic acid adenine dinucleotide]" result_value=2.25%

Query NC(=O)c1ccc[n+]([C@@H]2O[C@H](CO)[C@@H](O)[C@H]2O)c1 [NR, nicotinamide riboside] yields K61Q PncC fluorescence quenching (%) vs buffer of 3.13%

---

Target: S29A PncC (Escherichia coli, UniProt P0A6G3, S29A)
Construct: made in house; host or cells: E. coli BL21(DE3)
Sequence (P0A6G3 whole entry S29A): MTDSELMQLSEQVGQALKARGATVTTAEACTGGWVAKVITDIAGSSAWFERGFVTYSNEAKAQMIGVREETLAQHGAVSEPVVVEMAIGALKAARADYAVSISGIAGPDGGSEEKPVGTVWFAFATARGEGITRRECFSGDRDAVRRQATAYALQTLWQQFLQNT
Type: binding, E. coli
Conditions: nucleotide 6 µM
ASSAY READOUT: S29A PncC fluorescence quenching (%) vs buffer
Kindly provide the numeric value in % only, without the unit symbol.

These solved cases illustrate the format of a correct answer.
compound="Nc1ncnc2c1ncn2[C@@H]1O[C@H](COP(=O)(O)OP(=O)([O-])OC[C@H]2O[C@@H]([n+]3cccc(C(=O)O)c3)[C@H](O)[C@@H]2O)[C@@H](O)[C@H]1O [NaAD, nicotinic acid adenine dinucleotide]" result_value=0
compound="NC(=O)c1cccnc1 [Nam, nicotinamide]" result_value=2.65
compound="NC(=O)c1ccc[n+]([C@@H]2O[C@H](COP(=O)([O-])O)[C@@H](O)[C@H]2O)c1 [NMN, nicotinamide mononucleotide]" result_value=17.55

Query O=C(O)c1cccnc1 [Na, nicotinic acid] yields S29A PncC fluorescence quenching (%) vs buffer of 0

Query NC(=O)c1ccc[n+]([C@@H]2O[C@H](COP(=O)([O-])OP(=O)(O)OC[C@H]3O[C@@H](n4cnc5c(N)ncnc54)[C@H](O)[C@@H]3O)[C@@H](O)[C@H]2O)c1 [NAD, nicotinamide adenine dinucleotide] yields S29A PncC fluorescence quenching (%) vs buffer of 0.32

---

Molecular target: S29A PncC (Escherichia coli, UniProt P0A6G3, S29A)
Construct: made in house; host or cells: E. coli BL21(DE3)
Type: binding, E. coli
Details: nucleotide 0.375 µM
From the text: Experimental data were processed using the OriginPro 8.0 (OriginLab Corporation, Northampton, MA, USA). A non-linear curve analysis (Hill1 plot) was used for plotting the F0/F values in function of the metabolite concentration, to obtain the Kd value.
ASSAY READOUT: S29A PncC fluorescence quenching (%) vs buffer
Kindly provide the numeric value in % only, without the unit symbol.

Query `O=C(O)c1cccnc1` yields S29A PncC fluorescence quenching (%) vs buffer of 0

Query NC(=O)c1cccnc1 [Nam, nicotinamide] yields S29A PncC fluorescence quenching (%) vs buffer of 0.18

Query O=C(O)c1ccc[n+]([C@@H]2O[C@H](COP(=O)([O-])O)[C@@H](O)[C@H]2O)c1 [NaMN, nicotinic acid mononucleotide] yields S29A PncC fluorescence quenching (%) vs buffer of 2.56

Query `NC(=O)c1ccc[n+]([C@@H]2O[C@H](COP(=O)(O)OP(=O)([O-])OC[C@H]3O[C@@H](n4cnc5c(N)ncnc54)[C@H](OP(=O)(O)O)[C@@H]3O)[C@@H](O)[C@H]2O)c1` yields S29A PncC fluorescence quenching (%) vs buffer of 0

Query NC(=O)c1ccc[n+]([C@@H]2O[C@H](CO)[C@@H](O)[C@H]2O)c1 [NR, nicotinamide riboside] yields S29A PncC fluorescence quenching (%) vs buffer of 0.12
